test: Tested for the velocity of 2.8 mM compound relative to that of 2.8 mM MgATP in the assay
measure: Velocity (%)
Your answer is read as %, so omit the unit and give the number.

### Prompt Note Velocity for the compound shown: CN(CCCCCCN(C)c1ncnc2c1ncn2[C@@H]1O[C@H](COP(=O)(O)OP(=O)(O)OP(=O)(O)O)[C@@H](O)[C@H]1O)C(=O)CCCCCNC(=O)CI
### Response 49

### Prompt Quickly give me recorded Velocity for O=C(CI)NCCCCCNc1ncnc2c1ncn2[C@@H]1O[C@H](COP(=O)(O)OP(=O)(O)OP(=O)(O)O)[C@@H](O)[C@H]1O
### Response 13

### Prompt Identify Velocity associated with the compound O=C(CI)NCCCCCCCNc1ncnc2c1ncn2[C@@H]1O[C@H](COP(=O)(O)OP(=O)(O)OP(=O)(O)O)[C@@H](O)[C@H]1O
### Response 38

---

For each of the molecules below, state its inhibition.
tested on: Saccharomyces cerevisiae; test: Time dependent inhibition of hexokinase activity after 6 hr, at 22 degrees celsius, with 5 mM ATP derivative in yeast.
Numbers only here, please. The scale is %.

### Prompt Provide only the value of recorded inhibition for O=C(CI)NCCCCCNc1ncnc2c1ncn2[C@@H]1O[C@H](COP(=O)(O)OP(=O)(O)OP(=O)(O)O)[C@@H](O)[C@H]1O
### Response 0

### Prompt Determine its reported inhibition: Nc1ncnc2c1nc(NCCCCCCNC(=O)CI)n2[C@@H]1O[C@H](COP(=O)(O)OP(=O)(O)OP(=O)(O)O)[C@@H](O)[C@H]1O
### Response 0

### Prompt Consider the molecule O=C(CI)NCCCCCCCCNc1ncnc2c1ncn2[C@@H]1O[C@H](COP(=O)(O)OP(=O)(O)OP(=O)(O)O)[C@@H](O)[C@H]1O . State its measured inhibition.
### Response 30

### Prompt Kindly indicate its recorded inhibition. Item: O=C(CI)NCCCCC(=O)NCCCCCCNc1ncnc2c1ncn2[C@@H]1O[C@H](COP(=O)(O)OP(=O)(O)OP(=O)(O)O)[C@@H](O)[C@H]1O
### Response 0

### Prompt Specify inhibition for O=C(CI)NCCCC(=O)NCCCCCCNc1ncnc2c1ncn2[C@@H]1O[C@H](COP(=O)(O)OP(=O)(O)OP(=O)(O)O)[C@@H](O)[C@H]1O and stop.
### Response 0

### Prompt Note inhibition for the molecule shown: O=C(CI)NCCCCCC(=O)NCCCNc1ncnc2c1ncn2[C@@H]1O[C@H](COP(=O)(O)OP(=O)(O)OP(=O)(O)O)[C@@H](O)[C@H]1O
### Response 0

---

biological target: UniProt:P27881; test: Time dependent inhibition of hexokinase 2 activity after 6 h, at 5 mM compound
measure: inhibition (%)
Write down the numeric answer in % and omit the unit.

### Prompt Name the recorded inhibition of O=C(CI)NCCCCCC(=O)NCCCCCCNc1ncnc2c1ncn2[C@@H]1O[C@H](COP(=O)(O)OP(=O)(O)OP(=O)(O)O)[C@@H](O)[C@H]1O , assay system UniProt:P27881.
### Response 0

### Prompt Give measured inhibition for O=C(CI)NCCCCCCC(=O)NCCCCCCNc1ncnc2c1ncn2[C@@H]1O[C@H](COP(=O)(O)OP(=O)(O)OP(=O)(O)O)[C@@H](O)[C@H]1O (UniProt:P27881).
### Response 0

### Prompt Write down measured inhibition (UniProt:P27881) for this compound. O=C(CI)NCCCCCCCNc1ncnc2c1ncn2[C@@H]1O[C@H](COP(=O)(O)OP(=O)(O)OP(=O)(O)O)[C@@H](O)[C@H]1O
### Response 30

### Prompt Please tell me the measured inhibition for O=C(CI)NCCCCCCNc1ncnc2c1ncn2[C@@H]1O[C@H](COP(=O)(O)OP(=O)(O)OP(=O)(O)O)[C@@H](O)[C@H]1O ; system: UniProt:P27881.
### Response 35

### Prompt GET inhibition | system: UniProt:P27881 | item: CN(CCCN(C)C(=O)CCCNc1ncnc2c1ncn2[C@@H]1O[C@H](COP(=O)(O)OP(=O)(O)OP(=O)(O)O)[C@@H](O)[C@H]1O)C(=O)CCCNC(=O)CI
### Response 0

### Prompt Under UniProt:P27881, report inhibition for CN(CCCCCCN(C)c1ncnc2c1ncn2[C@@H]1O[C@H](COP(=O)(O)OP(=O)(O)OP(=O)(O)O)[C@@H](O)[C@H]1O)C(=O)CCCCCCNC(=O)CI
### Response 0

### Prompt # assay system UniProt:P27881: give inhibition of CN(CCCCN(C)c1ncnc2c1ncn2[C@@H]1O[C@H](COP(=O)(O)OP(=O)(O)OP(=O)(O)O)[C@@H](O)[C@H]1O)C(=O)CCCNC(=O)CI
### Response 0

### Prompt Output reported inhibition of the compound O=C(CI)NCCC(=O)NCCCCCCNc1ncnc2c1ncn2[C@@H]1O[C@H](COP(=O)(O)OP(=O)(O)OP(=O)(O)O)[C@@H](O)[C@H]1O on UniProt:P27881.
### Response 0

### Prompt // output inhibition; input Nc1ncnc2c1nc(NCCCCCCNC(=O)CI)n2[C@@H]1O[C@H](COP(=O)(O)OP(=O)(O)OP(=O)(O)O)[C@@H](O)[C@H]1O ; system UniProt:P27881
### Response 0

### Prompt System UniProt:P27881. Read-out inhibition. Item O=C(CI)NCCCNc1ncnc2c1ncn2[C@@H]1O[C@H](COP(=O)(O)OP(=O)(O)OP(=O)(O)O)[C@@H](O)[C@H]1O . Report value.
### Response 0

### Prompt // fetch inhibition for O=C(CI)NCCNc1ncnc2c1ncn2[C@@H]1O[C@H](COP(=O)(O)OP(=O)(O)OP(=O)(O)O)[C@@H](O)[C@H]1O ; system: UniProt:P27881
### Response 0

### Prompt Supply inhibition measured with UniProt:P27881 for O=C(CI)NCCCCC(=O)NCCCCCCNc1ncnc2c1ncn2[C@@H]1O[C@H](COP(=O)(O)OP(=O)(O)OP(=O)(O)O)[C@@H](O)[C@H]1O .
### Response 0

### Prompt Give UniProt:P27881 inhibition for the following compound: O=C(CI)NCCCCCCC(=O)NCCCNc1ncnc2c1ncn2[C@@H]1O[C@H](COP(=O)(O)OP(=O)(O)OP(=O)(O)O)[C@@H](O)[C@H]1O
### Response 0

---

target: Hexokinase-2 (Rattus norvegicus) (UniProt P27881); experiment: Time dependent inhibition of hexokinase 2 activity after 6 h, at 5 mM compound
Sequence (P27881 whole entry): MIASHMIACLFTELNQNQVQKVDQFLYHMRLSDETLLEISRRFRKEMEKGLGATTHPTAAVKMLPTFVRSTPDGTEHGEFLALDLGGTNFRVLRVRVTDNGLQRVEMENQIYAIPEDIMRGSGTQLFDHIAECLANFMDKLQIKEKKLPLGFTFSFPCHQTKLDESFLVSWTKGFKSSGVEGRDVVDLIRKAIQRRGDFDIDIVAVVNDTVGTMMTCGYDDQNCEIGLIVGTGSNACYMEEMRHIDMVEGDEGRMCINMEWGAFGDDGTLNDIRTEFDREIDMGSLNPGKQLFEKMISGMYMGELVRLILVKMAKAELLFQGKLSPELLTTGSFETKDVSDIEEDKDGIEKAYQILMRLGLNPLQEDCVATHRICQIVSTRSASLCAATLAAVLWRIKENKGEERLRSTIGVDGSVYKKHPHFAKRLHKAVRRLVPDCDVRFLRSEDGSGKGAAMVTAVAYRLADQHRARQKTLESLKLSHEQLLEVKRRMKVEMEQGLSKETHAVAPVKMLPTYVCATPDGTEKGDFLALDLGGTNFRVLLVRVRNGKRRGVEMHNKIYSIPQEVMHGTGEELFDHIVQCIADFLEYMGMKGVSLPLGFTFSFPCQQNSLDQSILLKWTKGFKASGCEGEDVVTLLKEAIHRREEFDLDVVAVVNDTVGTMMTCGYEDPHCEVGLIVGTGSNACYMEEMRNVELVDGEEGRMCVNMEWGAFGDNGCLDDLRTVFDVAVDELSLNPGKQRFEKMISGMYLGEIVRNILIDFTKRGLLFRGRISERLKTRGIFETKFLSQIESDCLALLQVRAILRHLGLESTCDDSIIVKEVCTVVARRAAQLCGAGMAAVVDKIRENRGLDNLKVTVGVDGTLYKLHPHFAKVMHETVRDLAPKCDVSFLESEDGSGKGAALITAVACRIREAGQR
measure: inhibition (%)
Numeric answer only, unit % assumed.

### Prompt Supply recorded inhibition for CN(CCCCN(C)C(=O)CCCCNc1ncnc2c1ncn2[C@@H]1O[C@H](COP(=O)(O)OP(=O)(O)OP(=O)(O)O)[C@@H](O)[C@H]1O)C(=O)CCCCNC(=O)CI here.
### Response 0

### Prompt Note down inhibition recorded for O=C(CI)NCCCCNc1ncnc2c1ncn2[C@@H]1O[C@H](COP(=O)(O)OP(=O)(O)OP(=O)(O)O)[C@@H](O)[C@H]1O
### Response 0

### Prompt # return recorded inhibition for input Nc1ncnc2c1nc(NCCCCNC(=O)CI)n2[C@@H]1O[C@H](COP(=O)(O)OP(=O)(O)OP(=O)(O)O)[C@@H](O)[C@H]1O
### Response 0

### Prompt Please give the documented inhibition of CN(CCCCN(C)C(=O)CCCNc1ncnc2c1ncn2[C@@H]1O[C@H](COP(=O)(O)OP(=O)(O)OP(=O)(O)O)[C@@H](O)[C@H]1O)C(=O)CCCNC(=O)CI
### Response 0

### Prompt Consider the molecule O=C(CI)NCCCC(=O)NCCCCCCNc1ncnc2c1ncn2[C@@H]1O[C@H](COP(=O)(O)OP(=O)(O)OP(=O)(O)O)[C@@H](O)[C@H]1O and give its recorded inhibition.
### Response 0

### Prompt Give a short answer stating reported inhibition for NC(=O)CI.Nc1ncnc2c1ncn2[C@@H]1O[C@H](COP(=O)(O)OP(=O)(O)OP(=O)(O)O)[C@@H](O)[C@H]1O .
### Response 7

### Prompt Consider the molecule CN(CCCN(C)C(=O)CCCCNc1ncnc2c1ncn2[C@@H]1O[C@H](COP(=O)(O)OP(=O)(O)OP(=O)(O)O)[C@@H](O)[C@H]1O)C(=O)CCCCNC(=O)CI and give its recorded inhibition.
### Response 0

### Prompt Please report the measured inhibition for CN(CCCCN(C)c1ncnc2c1ncn2[C@@H]1O[C@H](COP(=O)(O)OP(=O)(O)OP(=O)(O)O)[C@@H](O)[C@H]1O)C(=O)CCCCCNC(=O)CI
### Response 0

### Prompt Let me know recorded inhibition for O=C(CI)NCCCCCCCCNc1ncnc2c1ncn2[C@@H]1O[C@H](COP(=O)(O)OP(=O)(O)OP(=O)(O)O)[C@@H](O)[C@H]1O , thanks.
### Response 41

### Prompt Provide inhibition value for the following molecule: Nc1ncnc2c1ncn2[C@@H]1O[C@H](COP(=O)(O)OP(=O)(O)OP(=O)(O)O)[C@@H](O)[C@H]1O
### Response 0

### Prompt Kindly indicate its recorded inhibition. Item: Nc1ncnc2c1nc(NCCNC(=O)CI)n2[C@@H]1O[C@H](COP(=O)(O)OP(=O)(O)OP(=O)(O)O)[C@@H](O)[C@H]1O
### Response 0
